target: hKv3.1 (Homo sapiens, UniProt P48547); construct: expressed in transfected cells; test: Automated patch clamp (Patchliner) whole-cell electrophysiology, Kv3.1; type: cell-based; details: 10 μM compound; voltage shift of the IV curve at V1/2; CHO-K1 cells stably expressing hKv3.1
Sequence (P48547 whole entry): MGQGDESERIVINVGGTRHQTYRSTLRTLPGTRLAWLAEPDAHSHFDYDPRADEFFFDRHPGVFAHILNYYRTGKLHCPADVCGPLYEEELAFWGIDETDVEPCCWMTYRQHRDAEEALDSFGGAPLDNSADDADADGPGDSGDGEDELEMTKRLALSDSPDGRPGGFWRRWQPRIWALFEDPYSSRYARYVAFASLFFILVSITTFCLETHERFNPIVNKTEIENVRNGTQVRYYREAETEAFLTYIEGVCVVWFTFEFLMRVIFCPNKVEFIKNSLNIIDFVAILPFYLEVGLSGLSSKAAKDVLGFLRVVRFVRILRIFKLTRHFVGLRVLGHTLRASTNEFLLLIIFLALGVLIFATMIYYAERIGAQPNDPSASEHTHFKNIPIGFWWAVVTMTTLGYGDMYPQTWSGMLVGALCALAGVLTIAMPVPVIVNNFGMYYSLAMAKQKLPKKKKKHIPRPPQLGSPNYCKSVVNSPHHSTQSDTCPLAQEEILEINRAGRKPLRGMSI
Readings of Kv3.1 Activity at 10 μM Voltage Shift (mV) for the listed compounds
outcome-measure: Kv3.1 Activity at 10 μM Voltage Shift (mV)

smiles-string	result
O=C1NC2(CCCC2)C(=O)N1c1ccnc(Oc2ccc3c(c2)OC(F)(F)O3)c1	−6.21 mV
CC[C@@]1(C)NC(=O)N(c2cccc(Oc3ccc4c(c3)OCCC4)n2)C1=O	−2.57 mV
COc1cc(Oc2cccc(N3C(=O)NC(C)(C)C3=O)n2)ccc1C	−1.61 mV
CC[C@@]1(C)NC(=O)N(c2cccc(Oc3cc(OC)cc(OC)c3)n2)C1=O	−2.08 mV

###

Target: hKv3.2 (Homo sapiens, UniProt Q96PR1)
Construct: expressed in transfected cells
Sequence (Q96PR1 1-638): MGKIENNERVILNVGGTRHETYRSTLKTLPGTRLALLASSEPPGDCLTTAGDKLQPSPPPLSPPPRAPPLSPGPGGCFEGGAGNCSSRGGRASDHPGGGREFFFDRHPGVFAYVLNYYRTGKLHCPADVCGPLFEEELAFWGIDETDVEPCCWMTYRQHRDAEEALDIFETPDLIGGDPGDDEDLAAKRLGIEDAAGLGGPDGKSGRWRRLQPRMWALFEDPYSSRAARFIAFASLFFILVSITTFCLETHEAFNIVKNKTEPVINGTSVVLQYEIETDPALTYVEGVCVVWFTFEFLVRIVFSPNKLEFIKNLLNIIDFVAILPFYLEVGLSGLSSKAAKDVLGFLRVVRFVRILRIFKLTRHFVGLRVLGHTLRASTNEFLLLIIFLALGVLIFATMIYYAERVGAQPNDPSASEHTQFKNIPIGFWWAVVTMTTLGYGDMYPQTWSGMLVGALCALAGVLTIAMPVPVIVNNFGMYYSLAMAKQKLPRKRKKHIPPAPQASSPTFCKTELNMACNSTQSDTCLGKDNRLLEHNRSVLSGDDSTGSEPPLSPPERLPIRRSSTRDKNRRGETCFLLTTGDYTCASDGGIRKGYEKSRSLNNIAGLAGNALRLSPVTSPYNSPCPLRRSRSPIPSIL
Experiment: Automated patch clamp (Patchliner) whole-cell electrophysiology, Kv3.2
Format: cell-based
Conditions: 10 μM compound; % potentiation of peak current at −10 mV voltage step vs vehicle; CHO-K1 cells stably expressing hKv3.2
Decision: activation at 10 µM compared against 20%; not below it gives Met, below it gives Not met.

compound	class
CC[C@@]1(C)NC(=O)N(c2ccc(F)c(Oc3ccc(C)c(OC)c3)n2)C1=O [Example 89]	Met
COc1cc(Oc2cccc(N3C(=O)NC4(CCCCC4)C3=O)n2)ccc1C [Example 75]	Not met
CC[C@@]1(C)NC(=O)N(c2cccc(Oc3ccc(C)c(OC)c3)n2)C1=O [Example 58]	Met
CC[C@H]1NC(=O)N(c2cc(Oc3ccc(C)c(OC)c3)ccn2)C1=O [Example 41]	Met
COc1cc(Oc2cc(N3C(=O)NC4(CCC4)C3=O)ccn2)ccc1C [Example 34]	Met
COc1cc(Oc2cncc(N3C(=O)NC(C)(C)C3=O)c2)ccc1C [Example 39]	Met
COc1cc(Oc2cc(N3C(=O)NC(C)(C)C3=O)ccn2)ccc1C [Example 1]	Met
CC1(C)NC(=O)N(c2ccc(F)c(Oc3ccc4c(c3)OC(F)(F)O4)n2)C1=O [Example 84]	Not met
COc1cc(Oc2cc(N3C(=O)NC4(CCCCC4)C3=O)ccn2)ccc1C [Example 24]	Met
CC1(C)NC(=O)N(c2ccnc(Oc3ccc4c(c3)CCC4)c2)C1=O [Example 3]	Met
COc1cc(Oc2cc(N3C(=O)NC4(CCCC4)C3=O)ccn2)ccc1C [Example 33]	Met
CC[C@H]1NC(=O)N(c2cccc(Oc3ccc(C)c(OC)c3)n2)C1=O [Example 48]	Met

###

Readings of activation at 10 µM for the listed molecules
target: hKv3.2 (Homo sapiens); construct: expressed in transfected cells; test: Automated patch clamp (Patchliner) whole-cell electrophysiology, Kv3.2; type: cell-based; conditions: 10 μM compound; % potentiation of peak current at −10 mV voltage step vs vehicle; CHO-K1 cells stably expressing hKv3.2

smiles-string	activation at 10 µM (%)
COc1cc(Oc2cc(N3C(=O)NC(C)(C)C3=O)ccn2)ccc1C(F)(F)F	14
CC[C@@]1(C)NC(=O)N(c2ccnc(Oc3ccc4c(c3)CCC4)c2)C1=O	48
O=C1NC2(CCCCC2)C(=O)N1c1ccnc(Oc2ccc3c(c2)OC(F)(F)O3)c1F	71
COc1cc(Oc2cc(N3C(=O)NC4(CCN(C)CC4)C3=O)ccn2)ccc1C	-4
CC[C@@]1(C)NC(=O)N(c2cccc(Oc3cc(OC)cc(OC)c3)n2)C1=O	34
COc1cc(Oc2cc(N3C(=O)NC(C)(C)C3=O)ccn2)ccc1F	25
COc1cc(Oc2nccc(N3C(=O)NC4(CCCC4)C3=O)c2F)ccc1C	121
O=C1NC2(CCCC2)C(=O)N1c1ccnc(Oc2ccc3c(c2)OC(F)(F)O3)c1	43
CC1(C)NC(=O)N(c2ccnc(Oc3ccc4c(c3)OC(F)(F)O4)c2)C1=O	30
CC[C@@]1(C)NC(=O)N(c2ccnc(Oc3ccc4c(c3)OC(F)(F)O4)c2)C1=O	47
COc1cc(Oc2cc(N3C(=O)NC(C)(C)C3=O)ccn2)ccc1Cl	22
O=C1NC2(CCC2)C(=O)N1c1ccnc(Oc2ccc3c(c2)OC(F)(F)O3)c1	63
O=C1NC2(CCCCC2)C(=O)N1c1ccnc(Oc2ccc3c(c2)OCO3)c1	55
CC[C@@]1(C)NC(=O)N(c2ccnc(Oc3ccc(C)c(OC)c3)c2)C1=O	21
COc1cc(Oc2nccc(N3C(=O)NC4(CCCCC4)C3=O)c2F)ccc1C	137
COc1cc(Oc2ccnc(N3C(=O)NC(C)(C)C3=O)c2)ccc1C	28
O=C1NC2(CCCC2)C(=O)N1c1ccnc(Oc2ccc3c(c2)OC(F)(F)O3)c1F	93
CC[C@@]1(C)NC(=O)N(c2cc(Oc3ccc(C)c(OC)c3)ccn2)C1=O	61

###

Readings of Kv3.1 Activity at 10 μM Potentiation (%) for the listed molecules
target: hKv3.1 (Homo sapiens, UniProt P48547); construct: expressed in transfected cells; assay: Automated patch clamp (Patchliner) whole-cell electrophysiology, Kv3.1; assay type: cell-based; conditions: 10 μM compound; % potentiation of peak current at −10 mV voltage step vs vehicle; CHO-K1 cells stably expressing hKv3.1
outcome-measure: Kv3.1 Activity at 10 μM Potentiation (%)

molecule	numeric-value
CC[C@@]1(C)NC(=O)N(c2cccc(Oc3cc(OC)cc(OC)c3)n2)C1=O [Example 70]	44
CC(C)c1cc(Oc2ccnc(N3C(=O)NC(C)(C)C3=O)c2)ccc1C#N [Example 47]	29
CC(C)c1cc(Oc2cccc(N3C(=O)NC(C)(C)C3=O)n2)ccc1C#N [Example 77]	12
CC[C@@]1(C)NC(=O)N(c2ccnc(Oc3ccc4c(c3)CCC4)c2)C1=O [Example 13]	27
O=C1NC2(CCCCC2)C(=O)N1c1ccnc(Oc2ccc3c(c2)OCO3)c1 [Example 35]	41
CC[C@H]1NC(=O)N(c2cncc(Oc3ccc(C)c(OC)c3)c2)C1=O [Example 38]	48
CC[C@@]1(C)NC(=O)N(c2cccc(Oc3ccc(F)c(OC)c3)n2)C1=O [Example 59]	10
CC[C@H]1NC(=O)N(c2cccc(Oc3cc(OC)ccc3C)n2)C1=O [Example 52]	14
Cc1ccc(Oc2cc(N3C(=O)NC4(CCCCC4)C3=O)ccn2)cc1OC(F)(F)F [Example 29]	12

###

target: hKv3.1 (Homo sapiens); construct: expressed in transfected cells; assay: Automated patch clamp (Patchliner) whole-cell electrophysiology, Kv3.1; format: cell-based; settings: 10 μM compound; voltage shift of the IV curve at V1/2; CHO-K1 cells stably expressing hKv3.1
Threshold check on Kv3.1 Activity at 10 μM Voltage Shift (mV): strictly below -4 mV is Fulfilled; on or above -4 mV is Not fulfilled.

smiles-string	class
COc1cc(Oc2cc(N3C(=O)NC4(CCC4)C3=O)ccn2)ccc1C	Fulfilled
CC[C@@]1(C)NC(=O)N(c2cccc(Oc3cccc4c3CCC4)n2)C1=O	Not fulfilled
CC[C@H]1NC(=O)N(c2cccc(Oc3cc(C)cc(OC)c3)n2)C1=O	Not fulfilled
CC[C@H]1NC(=O)N(c2cccc(Oc3ccc(C)c(OC)c3)n2)C1=O	Fulfilled
CC1(C)NC(=O)N(c2ccnc(Oc3ccc4c(c3)CCC4)c2)C1=O	Fulfilled

Origin of values: patent US12090146B2
